meta.source: patent US20120094909A1

List of EC50 values.
- tested_target: T1, human PCSK9 (proprotein convertase subtilisin kexin type 9) (human, UniProt Q8NBP7 31-692)
- T1 construct: Directly immobilized (SPR ProteOn), biotinylated (BLI), or in solution, depending on the assay; also called hPCSK9
- assay_details: FRET, competitor EGFA peptide

binder	EC50, nM
2382C05 (designed binder, Anti-PCSK9 Adnectin, His6-tagged) MGVSDVPRDLEVVAATPTSLLISWDAPADGAYGYYRITYGETGGNSPVQEFTVPVSKGTATISGLKPGVDYTITVYAVEYSFPGAGYYHRPISINYRTEIDKPSQHHHHHH	4
2382D09 (designed binder, Anti-PCSK9 Adnectin, His6-tagged) MGVSDVPRDLEVVAATPTSLLISWDAPAEGYGYYRITYGETGGNSPVQEFTVPVSKGTATISGLKPGVDYTITVYAVEFDFPGAGYYHRPISINYRTEIDKPSQHHHHHH	2.6
